experimentalTarget: BCRP (Homo sapiens, UniProt Q9UNQ0)
protocol: in vitro
runParameters: Caco-2, pH 7.4, Papp R1, IC50 determination, Caco-2, Cladribine alone, B-A
recordedMetric: Papp B→A (×10⁻⁶ cm/s)
# unit: ×10⁻⁶ cm/s | format: bare number

Could you tell me which Papp B→A is on file for Nc1nc(Cl)nc2c1ncn2[C@H]1C[C@H](O)[C@@H](CO)O1 ?
17.8

====

protocol: metabolic stability in cryopreserved hepatocytes
Assay type: in vitro ADME, human
runParameters: both sexes, pH 7.4; Human cryopreserved hepatocytes; positive control 1 μM
recordedMetric: hepatocyte CLint (µL/min/1e6 cells)
# unit: µL/min/1e6 cells | format: bare number

Could you tell me which hepatocyte CLint is on file for C[C@]12CC[C@H]3[C@@H](CCC4=CC(=O)CC[C@@]43C)[C@@H]1CC[C@@H]2O [testosterone] ?
108

====

experimentalTarget: CYP2C9 (Homo sapiens, UniProt P11712)
Sequence (P11712 whole entry): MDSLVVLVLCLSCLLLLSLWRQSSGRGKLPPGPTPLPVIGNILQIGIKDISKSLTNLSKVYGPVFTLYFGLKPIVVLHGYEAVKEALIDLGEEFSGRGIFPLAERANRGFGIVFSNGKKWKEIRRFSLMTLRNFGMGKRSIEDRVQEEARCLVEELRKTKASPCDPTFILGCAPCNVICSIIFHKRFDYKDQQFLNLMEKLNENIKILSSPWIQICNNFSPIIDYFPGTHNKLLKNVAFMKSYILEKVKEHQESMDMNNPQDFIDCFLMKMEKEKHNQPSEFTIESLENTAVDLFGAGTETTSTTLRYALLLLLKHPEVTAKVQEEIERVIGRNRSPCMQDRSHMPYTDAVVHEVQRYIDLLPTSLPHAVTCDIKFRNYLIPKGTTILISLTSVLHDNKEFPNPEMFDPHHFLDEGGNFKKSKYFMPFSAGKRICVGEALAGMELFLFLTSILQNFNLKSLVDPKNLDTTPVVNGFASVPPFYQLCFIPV
protocol: CYP inhibition in human liver microsomes
Assay type: in vitro ADME
Set-up: from tissue; host or cells: pooled human liver microsomes, 200 donors
runParameters: both sexes, pooled human liver microsomes, pH 7.4, HLM, 3.33 μM, read-out: % of Control Enzyme Activity
recordedMetric: activity at 20 min, 3.33 µM (%)
# unit: % | format: bare number

Could you tell me which activity at 20 min, 3.33 µM is on file for Nc1ccc(S(=O)(=O)Nc2ccnn2-c2ccccc2)cc1 ?
16.3

====

experimentalTarget: CYP2C9 (Homo sapiens, UniProt P11712)
protocol: CYP inhibition in human liver microsomes
Assay type: in vitro ADME
Parameters: from tissue; host or cells: pooled human liver microsomes, 200 donors
runParameters: both sexes, pooled human liver microsomes, pH 7.4, HLM, 0.123 μM, read-out: % of Control Enzyme Activity
recordedMetric: activity at 20 min, 0.123 µM (%)
# unit: % | format: bare number

Could you tell me which activity at 20 min, 0.123 µM is on file for Nc1ccc(S(=O)(=O)Nc2ccnn2-c2ccccc2)cc1 ?
76.9

====

System: BCRP
protocol: cell batch quality control, BCRP-MDCK monolayers
Type: in vitro ADME
runParameters: dog; BCRP-MDCK cell batch QC; passage 23
recordedMetric: efflux ratio
Would you mind answering with just the numeric figure?

Any idea what efflux ratio came out for Nc1nc(Cl)nc2c1ncn2[C@H]1C[C@H](O)[C@@H](CO)O1 on BCRP?
135

====

protocol: Compound 2 and metabolites in rat plasma, 50 mg/kg PO QD×10
Type: in vivo
runParameters: rat plasma; Compound 2 50 mg/kg PO QD×10; 8 h post tenth dose
recordedMetric: Average Concentration (ng/mL)
# unit: ng/mL | format: bare number

Could you tell me which Average Concentration is on file for CCn1c(C#CCNc2ccc(F)cc2)cc2cc(CNC)ccc21 ?
771.33

Try this compound too: CCn1c(C#CCNc2ccccc2)cc2cc(CNCc3ccccc3)ccc21
64.97

Try this compound too: CCn1c(C#CCNc2ccc(C)nc2)cc2cc(CNC3CCOCC3)ccc21
74.30

Try this compound too: CCn1c(C#CCNc2ccc(Cl)cc2)cc2cc(CNC3CCN(C)CC3)ccc21
2.30

====

experimentalTarget: CYP2C9 (Homo sapiens, UniProt P11712)
protocol: CYP inhibition in human liver microsomes
Type: in vitro ADME
Set-up: from tissue; host or cells: pooled human liver microsomes, 200 donors
runParameters: both sexes, pooled human liver microsomes, pH 7.4, HLM, 0.370 μM, read-out: % of Control Enzyme Activity
recordedMetric: activity at 20 min, 0.37 µM
Record the result as number plus unit.

Could you tell me which activity at 20 min, 0.37 µM is on file for Nc1ccc(S(=O)(=O)Nc2ccnn2-c2ccccc2)cc1 ?
55.4%

====

experimentalTarget: BCRP (Homo sapiens, UniProt Q9UNQ0)
Sequence (Q9UNQ0 1-655): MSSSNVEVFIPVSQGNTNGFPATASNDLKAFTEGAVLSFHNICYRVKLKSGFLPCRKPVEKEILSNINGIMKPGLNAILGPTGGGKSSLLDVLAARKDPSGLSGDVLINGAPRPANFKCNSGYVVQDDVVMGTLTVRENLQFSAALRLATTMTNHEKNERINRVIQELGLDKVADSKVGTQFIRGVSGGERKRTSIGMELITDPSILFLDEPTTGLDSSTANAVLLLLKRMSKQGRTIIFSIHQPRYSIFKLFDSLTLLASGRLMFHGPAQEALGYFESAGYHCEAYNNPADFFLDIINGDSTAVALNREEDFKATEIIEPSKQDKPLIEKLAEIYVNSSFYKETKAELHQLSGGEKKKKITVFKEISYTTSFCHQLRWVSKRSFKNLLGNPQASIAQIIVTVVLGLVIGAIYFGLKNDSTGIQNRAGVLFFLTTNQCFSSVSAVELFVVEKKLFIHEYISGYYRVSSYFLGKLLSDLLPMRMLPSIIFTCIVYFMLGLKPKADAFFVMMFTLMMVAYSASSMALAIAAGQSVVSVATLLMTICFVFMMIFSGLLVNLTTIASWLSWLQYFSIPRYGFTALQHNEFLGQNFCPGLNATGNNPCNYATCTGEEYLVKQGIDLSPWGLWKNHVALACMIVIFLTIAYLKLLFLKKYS
protocol: in vitro
runParameters: Caco-2, pH 7.4, Papp R2, Caco-2, Cladribine alone, A-to-B
recordedMetric: Papp A→B (×10⁻⁶ cm/s)
# unit: ×10⁻⁶ cm/s | format: bare number

Could you tell me which Papp A→B is on file for Nc1nc(Cl)nc2c1ncn2[C@H]1C[C@H](O)[C@@H](CO)O1 ?
0.478

====

experimentalTarget: CYP3A (Homo sapiens, UniProt P08684)
Sequence (P08684 2-503): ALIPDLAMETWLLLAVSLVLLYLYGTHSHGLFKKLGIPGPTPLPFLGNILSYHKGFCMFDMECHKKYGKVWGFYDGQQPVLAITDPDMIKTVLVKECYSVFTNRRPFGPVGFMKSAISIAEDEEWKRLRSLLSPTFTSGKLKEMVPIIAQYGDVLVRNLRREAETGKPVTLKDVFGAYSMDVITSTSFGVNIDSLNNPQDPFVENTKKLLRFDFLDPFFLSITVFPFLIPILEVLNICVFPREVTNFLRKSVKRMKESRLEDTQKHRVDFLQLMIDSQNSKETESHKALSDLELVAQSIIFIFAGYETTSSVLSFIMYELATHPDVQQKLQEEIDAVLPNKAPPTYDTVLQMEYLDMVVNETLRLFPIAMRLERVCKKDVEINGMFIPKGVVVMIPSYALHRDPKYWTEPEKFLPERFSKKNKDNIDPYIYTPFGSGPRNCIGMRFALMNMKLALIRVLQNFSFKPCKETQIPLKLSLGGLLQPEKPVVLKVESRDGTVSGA
protocol: in vitro
runParameters: both, microsomes, pH 7.4, % of Control Enzyme Activity, HLM, Testosterone probe, 3.00 μM
recordedMetric: activity at 10 min, 3 µM (%)
# unit: % | format: bare number

Any idea what activity at 10 min, 3 µM came out for CC(=O)N1CCN(c2ccc(OCC3COC(Cn4ccnc4)(c4ccc(Cl)cc4Cl)O3)cc2)CC1 (stereo not shown) on CYP3A (Homo sapiens, UniProt P08684)?
1.56

====

protocol: metabolic stability in cryopreserved hepatocytes
Format: in vitro ADME, rat
runParameters: male, Sprague-Dawley, pH 7.4; Rat cryopreserved hepatocytes; positive control 1 μM
recordedMetric: hepatocyte CLint (µL/min/1e6 cells)
# unit: µL/min/1e6 cells | format: bare number

Could you tell me which hepatocyte CLint is on file for C[C@]12CC[C@H]3[C@@H](CCC4=CC(=O)CC[C@@]43C)[C@@H]1CC[C@@H]2O ?
405

====

protocol: in vitro
runParameters: male, monkey, plasma, % Bound Mean
recordedMetric: fraction unbound at 4 h, 10 μM

Could you tell me which fraction unbound at 4 h, 10 μM is on file for CC(=O)CC(c1ccccc1)c1c(O)c2ccccc2oc1=O (stereo not shown) ?
0.006

====

experimentalTarget: BCRP (Homo sapiens)
protocol: in vitro
runParameters: Caco-2, pH 7.4, Papp R2, IC50 determination, Caco-2, Cladribine alone, B-A
recordedMetric: Papp B→A

Could you tell me which Papp B→A is on file for Nc1nc(Cl)nc2c1ncn2[C@H]1C[C@H](O)[C@@H](CO)O1 [Cladribine, cladribine] ?
11.5 ×10⁻⁶ cm/s

====

protocol: in vitro
runParameters: both, human
Method: All working solutions were freshly prepared similarly as described for the test article working solution. […] Measurement of Hematocrit: The hematocrit (the volume percentage of erythrocytes in blood) was determined in triplicate for each species by centrifuging the blood samples with a HAEMATOKRIT 200 at 9440×g for 5 min. […]
Please provide measured recovery at 60 min, 2 μM for the entries that follow.
# unit: % | format: bare number

Could you tell me which recovery at 60 min, 2 μM is on file for CCN(CC)CCCC(C)Nc1ccnc2cc(Cl)ccc12 (centres unmarked) ?
90.8

Try this compound too: O=C(O)Cc1ccccc1Nc1c(Cl)cccc1Cl
91.2

====

protocol: Compound 2 and metabolites in rat plasma, 50 mg/kg PO QD×10
Type: in vivo
runParameters: Day 10; rat; Compound 2 50 mg/kg PO QD×10
Please provide measured AUC0-last for the entries that follow.
# unit: ng·h/mL | format: bare number

Could you tell me which AUC0-last is on file for CCn1c(C#CCNc2ccccc2)cc2cc(CNCc3ccccc3)ccc21 [Compound 4] ?
1620

Try this compound too: CCn1c(C#CCNc2ccc(C)nc2)cc2cc(CNC3CCOCC3)ccc21 [Compound 8]
1021

Try this compound too: CCn1c(C#CCNc2ccc(F)cc2)cc2cc(CNC)ccc21 [Compound 5]
19943

Try this compound too: CCn1c(C#CCNc2ccc(Cl)cc2)cc2cc(CNC3CCN(C)CC3)ccc21 [Compound 7]
28

====

experimentalTarget: CYP3A (Homo sapiens, UniProt P08684)
protocol: in vitro
runParameters: both, microsomes, pH 7.4, % of Control Enzyme Activity, HLM, Testosterone probe, 0.0123 μM
recordedMetric: activity at 10 min, 0.0123 µM (%)
# unit: % | format: bare number

Could you tell me which activity at 10 min, 0.0123 µM is on file for CC(=O)N1CCN(c2ccc(OCC3COC(Cn4ccnc4)(c4ccc(Cl)cc4Cl)O3)cc2)CC1 (stereo not shown) [Ketoconazole, ketoconazole] ?
58.4
